# measurement.target: c-Met (Homo sapiens, UniProt P08581)
# Sequence (P08581 25-1390): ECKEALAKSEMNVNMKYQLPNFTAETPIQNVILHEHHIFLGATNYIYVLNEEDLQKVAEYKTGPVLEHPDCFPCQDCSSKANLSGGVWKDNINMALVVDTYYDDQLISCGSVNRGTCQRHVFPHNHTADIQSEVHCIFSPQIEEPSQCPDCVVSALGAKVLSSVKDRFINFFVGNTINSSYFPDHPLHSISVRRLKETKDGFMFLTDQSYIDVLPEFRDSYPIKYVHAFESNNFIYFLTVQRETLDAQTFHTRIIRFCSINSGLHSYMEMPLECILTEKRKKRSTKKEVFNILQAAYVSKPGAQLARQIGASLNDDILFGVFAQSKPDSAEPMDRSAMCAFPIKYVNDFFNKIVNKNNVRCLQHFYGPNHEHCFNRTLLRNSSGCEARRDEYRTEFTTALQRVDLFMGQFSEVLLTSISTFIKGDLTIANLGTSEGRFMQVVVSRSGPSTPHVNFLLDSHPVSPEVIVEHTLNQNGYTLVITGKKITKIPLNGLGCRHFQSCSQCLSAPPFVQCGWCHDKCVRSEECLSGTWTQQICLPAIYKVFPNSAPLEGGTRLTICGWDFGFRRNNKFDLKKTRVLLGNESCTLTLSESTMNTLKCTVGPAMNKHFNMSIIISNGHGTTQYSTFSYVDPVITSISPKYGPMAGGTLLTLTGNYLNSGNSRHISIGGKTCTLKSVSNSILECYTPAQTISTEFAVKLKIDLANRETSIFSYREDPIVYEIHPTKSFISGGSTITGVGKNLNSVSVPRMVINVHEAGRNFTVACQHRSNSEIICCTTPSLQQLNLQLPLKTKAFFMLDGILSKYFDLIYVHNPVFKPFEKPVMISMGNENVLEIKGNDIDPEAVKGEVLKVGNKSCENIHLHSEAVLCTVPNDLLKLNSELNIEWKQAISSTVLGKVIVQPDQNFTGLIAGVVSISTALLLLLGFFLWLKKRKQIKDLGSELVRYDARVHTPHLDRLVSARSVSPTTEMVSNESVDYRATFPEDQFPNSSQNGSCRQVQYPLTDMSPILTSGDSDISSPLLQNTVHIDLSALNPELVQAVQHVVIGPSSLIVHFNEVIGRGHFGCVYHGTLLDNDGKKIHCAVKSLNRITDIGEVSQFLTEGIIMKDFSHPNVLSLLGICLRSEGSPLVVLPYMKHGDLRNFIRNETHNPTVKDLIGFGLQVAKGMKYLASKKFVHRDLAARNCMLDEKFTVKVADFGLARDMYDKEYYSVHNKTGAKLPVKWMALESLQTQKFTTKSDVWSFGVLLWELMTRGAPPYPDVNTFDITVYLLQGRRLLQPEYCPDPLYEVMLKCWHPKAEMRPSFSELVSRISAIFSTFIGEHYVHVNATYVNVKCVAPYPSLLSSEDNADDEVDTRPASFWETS
# assay.protocol: Ki determination for the inhibition of c-Met kinase activity (standard coupled enzyme system)
# Assay type: biochemical
# assay.conditions: coupled enzyme system, 200 μM ATP, 10 μM polyGluTyr, 80 nM c-Met, 30° C.; read-out: c-Met Ki
Catalogue of molecules with associated Ki

Reference set (4 entries):
# molecule, measurement.target, assay.result
rows = [
    ("C[C@@H](Nc1ccc2nnc(Cc3ccc(O)cc3)n2n1)C1CCCCC1", "c-Met (Homo sapiens, UniProt P08581)", "100 to 2000 nM"),
    ("COc1ccccc1Nc1nn2c(Cc3ccc(O)c(Cl)c3)nnc2s1", "c-Met (Homo sapiens, UniProt P08581)", "100 to 2000 nM"),
    ("Oc1ccc(Cc2nnc3ccc(N4CCC(c5ccccc5)C4)nn23)cc1 (centres unmarked)", "c-Met (Homo sapiens, UniProt P08581)", "> 2000 nM"),
    ("Oc1ccc(Cc2nnc3ccc(Nc4cccc(F)c4)nn23)cc1Cl", "c-Met (Homo sapiens, UniProt P08581)", "< 100 nM"),
]

Query molecule follows.
Just so you know, measured Ki for CC(O)c1cccc(Nc2ccc3nnc(Cc4ccc(O)c(F)c4)n3n2)c1 (centres unmarked) came out at 100 to 2000 nM
